The following binders are listed with their measured Anti-CD28 Fab signal in the presence of CD28 (phage binding ELISA) values.
# tgt: Anti-CD28 Fab (SEQ ID NOs: 696, 697)
# Sequence (VH, as listed by the source, chain 1 of 2): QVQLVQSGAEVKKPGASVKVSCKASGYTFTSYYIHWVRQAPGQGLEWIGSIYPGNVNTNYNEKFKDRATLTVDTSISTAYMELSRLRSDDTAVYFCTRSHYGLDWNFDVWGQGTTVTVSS
# Sequence (VL, as listed by the source, chain 2 of 2): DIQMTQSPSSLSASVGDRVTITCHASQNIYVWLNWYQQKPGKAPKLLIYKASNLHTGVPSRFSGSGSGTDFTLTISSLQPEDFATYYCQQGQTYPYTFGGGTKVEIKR
# method.description: phage binding ELISA on captured anti-CD28 Fab; competitor: CD28 antigen preincubated in the wells
Please state the value as a number alone, without comment.

# count of solved cases: 4
{"binder": "YCEGHAPQYMNKCL (Peptide-87 library clone, tested as clonal phage supernatant with the peptide fused to the pIII filament of the bacteriophage) [Phage-906]", "quantitative.result": 0.08}
{"binder": "YCDGHSADYMAKCL (Peptide-87 library clone, tested as clonal phage supernatant with the peptide fused to the pIII filament of the bacteriophage) [Phage-912]", "quantitative.result": 0.07}
{"binder": "YCDGHSREYMSKCL (Peptide-87 library clone, tested as clonal phage supernatant with the peptide fused to the pIII filament of the bacteriophage) [Phage-908]", "quantitative.result": 0.1}
{"binder": "YCDGHSPEYIGKCL (Peptide-87 library clone, tested as clonal phage supernatant with the peptide fused to the pIII filament of the bacteriophage) [Phage-917]", "quantitative.result": 0.07}

Now for another entry.
Challenge: For YCDGHAAEYMAKCV (Peptide-87 library clone, tested as clonal phage supernatant with the peptide fused to the pIII filament of the bacteriophage) [Phage-909] , write its Anti-CD28 Fab signal in the presence of CD28 (phage binding ELISA).
Response given: 0.07

src = patent US20260242478A1
